assay: plasmodial surface anion channel blockers, osmotic lysis – cell-based, P. falciparum Indochina, OD700, 2 h, primary screen (AID 1155);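 further: lysis reports solute entry through the parasite surface anion channel PSAC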; settings: P. falciparum Indochina infected erythrocytes, higher = more signal, called active from +8 up or from −8 down
Would you please tag the item True when its z-score is 2 or above, and False when it is below?

{"compound": "Cc1ccc(NN2C(C(O)c3c(F)cccc3Cl)C=CC3C(=O)N(C4CCCCC4)C(=O)C32)cc1 (stereo not given)", "qualitativeLabel": "False"}
{"compound": "C=CC[C@@]1(C(=O)NCCCOC)N=C(c2ccc(OCCCO)cc2)O[C@@H]1c1ccccc1", "qualitativeLabel": "True"}
{"compound": "CCOC(=O)C1=CC[C@@H](c2ccccc2F)N(S(=O)(=O)c2ccc(C)cc2)[C@H]1c1ccccc1", "qualitativeLabel": "False"}
{"compound": "CC1=C2[C@@H](CCc3ccccc3)OB(O)C[C@@H]2[C@@H]2C(=O)N(C)C(=O)[C@@H]2C1", "qualitativeLabel": "False"}
{"compound": "CN(C)C(=O)[C@@]1(Cc2ccccc2CN=[N+]=[N-])N=C(c2ccc(OCCCO)cc2)O[C@H]1c1ccccc1N=[N+]=[N-]", "qualitativeLabel": "True"}

###

molecular target: Neurogenic locus notch homolog protein 2 (Homo sapiens) (UniProt Q04721); assay: small molecules binding Notch2 protein – biochemical, small-molecule microarray, 635 nm fluorescence, stem cell growth factors, primary screen (AID 1073); conditions: higher = more signal
Sequence (Q04721 whole entry, looked up): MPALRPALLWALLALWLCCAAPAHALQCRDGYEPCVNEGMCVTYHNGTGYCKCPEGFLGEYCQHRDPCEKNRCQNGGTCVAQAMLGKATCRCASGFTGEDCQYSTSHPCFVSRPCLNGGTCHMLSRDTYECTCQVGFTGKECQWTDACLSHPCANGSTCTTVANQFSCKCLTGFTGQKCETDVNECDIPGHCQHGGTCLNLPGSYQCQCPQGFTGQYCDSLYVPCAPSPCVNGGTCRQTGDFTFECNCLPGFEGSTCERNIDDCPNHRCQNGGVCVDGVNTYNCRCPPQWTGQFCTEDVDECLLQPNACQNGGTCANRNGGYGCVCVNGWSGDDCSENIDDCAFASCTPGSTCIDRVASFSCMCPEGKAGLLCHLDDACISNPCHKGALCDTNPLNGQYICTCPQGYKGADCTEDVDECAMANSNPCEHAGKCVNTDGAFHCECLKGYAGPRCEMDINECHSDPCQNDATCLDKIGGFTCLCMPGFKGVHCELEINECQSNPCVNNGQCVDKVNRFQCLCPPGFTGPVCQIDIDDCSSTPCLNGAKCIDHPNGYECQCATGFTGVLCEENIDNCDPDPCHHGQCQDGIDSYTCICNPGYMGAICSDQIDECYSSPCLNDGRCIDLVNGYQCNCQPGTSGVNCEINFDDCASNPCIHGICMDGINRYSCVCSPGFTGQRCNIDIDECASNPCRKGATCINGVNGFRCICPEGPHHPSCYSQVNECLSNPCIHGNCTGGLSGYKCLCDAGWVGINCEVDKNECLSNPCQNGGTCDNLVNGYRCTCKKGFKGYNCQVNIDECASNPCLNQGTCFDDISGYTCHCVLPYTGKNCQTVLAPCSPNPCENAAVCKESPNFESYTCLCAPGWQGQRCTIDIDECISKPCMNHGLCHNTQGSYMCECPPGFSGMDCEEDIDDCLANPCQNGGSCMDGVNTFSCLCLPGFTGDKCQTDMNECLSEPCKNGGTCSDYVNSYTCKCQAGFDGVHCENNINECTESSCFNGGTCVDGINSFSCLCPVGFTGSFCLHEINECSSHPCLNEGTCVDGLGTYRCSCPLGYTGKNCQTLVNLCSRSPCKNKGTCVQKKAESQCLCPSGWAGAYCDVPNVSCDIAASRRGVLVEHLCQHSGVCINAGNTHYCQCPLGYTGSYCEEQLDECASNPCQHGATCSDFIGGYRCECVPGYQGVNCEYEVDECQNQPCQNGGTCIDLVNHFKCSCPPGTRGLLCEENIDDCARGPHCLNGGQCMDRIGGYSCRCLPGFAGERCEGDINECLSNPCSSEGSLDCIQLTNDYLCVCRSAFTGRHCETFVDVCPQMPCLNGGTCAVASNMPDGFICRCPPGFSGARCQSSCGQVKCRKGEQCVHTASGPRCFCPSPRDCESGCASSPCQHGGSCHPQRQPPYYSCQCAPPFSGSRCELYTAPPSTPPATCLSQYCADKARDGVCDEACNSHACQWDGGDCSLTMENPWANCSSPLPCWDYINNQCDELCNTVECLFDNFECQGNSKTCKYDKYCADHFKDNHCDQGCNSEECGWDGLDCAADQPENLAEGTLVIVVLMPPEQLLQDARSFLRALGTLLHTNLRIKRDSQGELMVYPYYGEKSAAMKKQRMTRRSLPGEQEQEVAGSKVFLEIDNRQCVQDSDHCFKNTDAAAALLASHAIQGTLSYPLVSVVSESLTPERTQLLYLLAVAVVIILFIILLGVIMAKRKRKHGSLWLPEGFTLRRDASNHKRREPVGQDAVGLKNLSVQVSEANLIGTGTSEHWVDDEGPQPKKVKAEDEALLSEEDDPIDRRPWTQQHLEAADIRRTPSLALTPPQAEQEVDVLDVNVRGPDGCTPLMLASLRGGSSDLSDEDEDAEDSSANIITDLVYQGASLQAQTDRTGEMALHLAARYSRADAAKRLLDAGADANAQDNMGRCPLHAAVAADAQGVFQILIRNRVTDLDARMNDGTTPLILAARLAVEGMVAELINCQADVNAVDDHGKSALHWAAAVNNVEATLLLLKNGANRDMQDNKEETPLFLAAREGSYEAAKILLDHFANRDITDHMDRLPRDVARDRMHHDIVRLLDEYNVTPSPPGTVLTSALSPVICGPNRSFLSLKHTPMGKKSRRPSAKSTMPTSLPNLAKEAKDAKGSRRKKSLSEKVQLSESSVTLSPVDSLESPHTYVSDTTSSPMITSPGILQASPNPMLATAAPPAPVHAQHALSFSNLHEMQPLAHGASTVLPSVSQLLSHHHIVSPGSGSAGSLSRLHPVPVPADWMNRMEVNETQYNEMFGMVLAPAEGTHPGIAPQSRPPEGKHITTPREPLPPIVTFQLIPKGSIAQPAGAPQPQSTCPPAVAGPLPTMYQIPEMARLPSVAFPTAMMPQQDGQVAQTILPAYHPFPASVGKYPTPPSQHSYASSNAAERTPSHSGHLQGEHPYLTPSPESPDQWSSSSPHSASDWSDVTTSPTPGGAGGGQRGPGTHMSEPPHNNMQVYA

{"molecule": "O=c1cccc(-c2ccc([N+](=O)[O-])cc2)o1", "testedSystem": "Neurogenic locus notch homolog protein 2 (Homo sapiens) (UniProt Q04721)", "composite z-score": 0.698}
{"molecule": "COC(=O)[C@@]1(Cc2ccc(F)cc2)[C@H]2c3cc(C(=O)N(C)C)n(CCc4ccc(OC)c(Br)c4)c3C[C@H]2CN1C(=O)c1ccccc1", "testedSystem": "Neurogenic locus notch homolog protein 2 (Homo sapiens) (UniProt Q04721)", "composite z-score": 0.716}
{"molecule": "Cc1ccc(F)cc1S(=O)(=O)N[C@@H]1CCN(Cc2ccc(Br)cc2)C1", "testedSystem": "Neurogenic locus notch homolog protein 2 (Homo sapiens) (UniProt Q04721)", "composite z-score": 0.414}
{"molecule": "O=C1OCCC=C[C@H]2OC34C=CCN(c5ccc6ccccc6c5)C(=O)[C@H]3N(CCCO)C(=O)[C@@H]4C12 (stereo partly specified)", "testedSystem": "Neurogenic locus notch homolog protein 2 (Homo sapiens) (UniProt Q04721)", "composite z-score": -2.08}
{"molecule": "COCCOC(=O)N1C(=O)[C@@]2(c3cc(C#CC4=CCCCC4)ccc31)[C@H](C(=O)Nc1nc3ccccc3s1)[C@H]1C(=O)O[C@H](c3ccccc3)[C@H](c3ccccc3)N1[C@@H]2c1ccc(O)cc1", "testedSystem": "Neurogenic locus notch homolog protein 2 (Homo sapiens) (UniProt Q04721)", "composite z-score": 0.992}
{"molecule": "CCCC=C(CCC)[C@@H](NS(=O)(=O)c1ccc(C(F)(F)F)cc1)c1ccccc1", "testedSystem": "Neurogenic locus notch homolog protein 2 (Homo sapiens) (UniProt Q04721)", "composite z-score": 0.0998}

###

assay: calcein-AM signal in unstimulated myeloma cells – cell-based, calcein-AM fluorescence, 48 h, PK04 Diversity Set, profiling panel (AID 1166); details: RPMI8226 myeloma viability, higher = more signal;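 further: cells grown under basal conditions without added stimulus; test concentration not given here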

{"molecule": "Cn1cccc1C(O)C1C=CC2C(=O)N(c3ccccc3)C(=O)C2N1Nc1ccccc1 (stereo not drawn)", "z-score": -0.244}
{"molecule": "CCOC(=O)C[C@H]1[C@H](OC(=O)c2cc3ccccc3oc2=O)[C@@H](NC(=O)c2ccccc2)c2cc(OCCCO)ccc2N1C(=O)c1ccccc1", "z-score": -2.3}
{"molecule": "CCOC(=O)C[C@H]1[C@H](OC(=O)c2ccccc2-c2ccccc2)[C@@H](NC(=O)c2ccc3ccccc3n2)c2cc(OCCCO)ccc2N1C(=O)Cc1ccc(OC)cc1", "z-score": -0.826}
{"molecule": "C=C(C(=O)CC[C@H](OC(=O)c1ccccc1-c1ccccc1C(=O)O)c1cccc(OCCO)c1)C(C)C", "z-score": -1.52}
{"molecule": "CC(C)N1C(=O)C[C@@](C(=O)O)(c2ccc([N+](=O)[O-])cc2)[C@H]1c1ccc(CO)cc1", "z-score": 1.1}
{"molecule": "O=C1O[C@H](c2ccccc2)[C@H](c2ccccc2)N2[C@H]1[C@@H](C(=O)O)[C@]1(C(=O)Nc3ccc(C#CCCO)cc31)[C@H]2c1ccccc1OCCO", "z-score": -0.353}
{"molecule": "NCCCCCCNC(=O)[C@@H]1C[C@@H]2C(=O)N[C@@H](CCCCN)C(=O)N2[C@@H]1c1ccc(O)cc1", "z-score": -0.0734}
{"molecule": "Cc1ccc(F)cc1S(=O)(=O)N[C@@H]1CCN(Cc2ccc(Br)cc2)C1", "z-score": -1.29}
{"molecule": "O=C1C2C=CC(C(O)c3ccco3)N(Nc3ccccc3F)C2C(=O)N1c1ccccc1 (stereo not drawn)", "z-score": 0.243}
{"molecule": "COCCOC(=O)N1C(=O)[C@@]2(c3ccccc31)[C@H](C(=O)NC[C@H](O)c1ccccc1)[C@H]1C(=O)O[C@H](c3ccccc3)[C@H](c3ccccc3)N1[C@@H]2c1ccc(O)cc1", "z-score": -3.46}
{"molecule": "C=C(/C(=C/C[C@H](OC(C)=O)c1ccc(CO)o1)c1cnc2ccccc2c1)C(C)C", "z-score": -1.47}
{"molecule": "C#CCN(Cc1ccccc1Br)[C@H](/C=C/c1ccccc1)[C@@H](O)Cc1ccccc1", "z-score": -3.89}
{"molecule": "CC(C)C(CO)N1C(=O)[C@@H]2C3C(=O)OCCC/C=C\\[C@H]3OC23C=CCN(c2ccc4ccccc4c2)C(=O)[C@@H]13 (stereo partly drawn)", "z-score": 0.457}
{"molecule": "COCCOC(=O)N1C(=O)[C@@]2(c3cc(C#CC4=CCCCC4)ccc31)[C@H](c1ccccc1OCCO)N1[C@H](c3ccccc3)[C@H](c3ccccc3)OC(=O)[C@H]1[C@@H]2C(=O)N1CCN(c2ncccn2)CC1", "z-score": -1.92}
{"molecule": "CCCCC=C[C@@H](NC(=O)OCc1ccccc1Cl)c1ccccc1", "z-score": -0.871}
{"molecule": "O=C(NCCN1CCOCC1)[C@@H]1c2ccccc2C(=O)N(Cc2ccccc2Cl)[C@H]1c1ccc(CO)cc1", "z-score": 0.125}
{"molecule": "C=CCC(OC(C)=O)[C@@H]1[C@@H](N(Cc2ccc(-c3cccc(C(F)(F)F)c3)o2)C(=O)Cc2ccc(OC)cc2)c2cc(OCCCO)ccc2N1C(=O)c1ccc(-c2ccccc2)cc1 (stereo partly drawn)", "z-score": -1.93}
{"molecule": "Oc1ccc2cc[n+](Cc3cc4c(cc3Br)OCO4)cc2c1", "z-score": -1.77}
